test system: Renin (Homo sapiens, UniProt P00797)
assay protocol: Inhibition of human plasma renin
pIC50: −log10 of the molar value. Where a SMILES comes first, the peptide text is derived from it. [ ]: non-standard residue; d: D form. The star is where a group is joined. Sta = CC(C)C[C@H](N)[C@@H](O)CC(=O)O; Cha = N[C@@H](CC1CCCCC1)C(=O)O; Isovaleryl = CC(C)CC(=O)*; Boc = CC(C)(C)OC(=O)*; Bn = c1ccc(C*)cc1
property label: pIC50

# count of solved cases: 2
- molecule: "COC(=O)C[C@H](O)[C@H](CC(C)C)NC(=O)[C@H](C)NC(=O)C[C@H](O)[C@H](CC(C)C)NC(=O)[C@H](CC1CCCCC1)NC(=O)[C@H](Cc1ccccc1)NC(=O)OC(C)(C)C (Boc-F[Cha][Sta]A[Sta]-OMe)"
  pIC50: 6.31
- molecule: "COC(=O)C[C@H](O)[C@H](CC(C)C)NC(=O)[C@H](C)NC(=O)C[C@H](O)[C@H](CC(C)C)NC(=O)[C@H](Cc1ccccc1)NC(=O)[C@H](Cc1ccccc1)NC(=O)CC(C)C (Isovaleryl-FF[Sta]A[Sta]-OMe)"
  pIC50: 6.50

1. COC(=O)C[C@H](O)[C@H](CC(C)C)NC(=O)[C@H](C)NC(=O)C[C@H](O)[C@H](CC(C)C)NC(=O)[C@H](CCC(N)=O)NC(=O)[C@H](Cc1ccccc1)NC(=O)OC(C)(C)C (Boc-FQ[Sta]A[Sta]-OMe)
2. COC(=O)C[C@H](O)[C@H](CC(C)C)NC(=O)[C@H](C)NC(=O)C[C@H](O)[C@H](CC(C)C)NC(=O)[C@H](Cc1ccc(OCc2ccccc2)cc1)NC(=O)[C@H](Cc1ccccc1)NC(=O)OC(C)(C)C (Boc-FY(Bn)[Sta]A[Sta]-OMe)
Task item: Given 1 and given 2 , which shows the smaller recorded pIC50? State your choice using its label.
Reply: 2

----------
test system: Renin (Homo sapiens)
Sequence (P00797 whole entry): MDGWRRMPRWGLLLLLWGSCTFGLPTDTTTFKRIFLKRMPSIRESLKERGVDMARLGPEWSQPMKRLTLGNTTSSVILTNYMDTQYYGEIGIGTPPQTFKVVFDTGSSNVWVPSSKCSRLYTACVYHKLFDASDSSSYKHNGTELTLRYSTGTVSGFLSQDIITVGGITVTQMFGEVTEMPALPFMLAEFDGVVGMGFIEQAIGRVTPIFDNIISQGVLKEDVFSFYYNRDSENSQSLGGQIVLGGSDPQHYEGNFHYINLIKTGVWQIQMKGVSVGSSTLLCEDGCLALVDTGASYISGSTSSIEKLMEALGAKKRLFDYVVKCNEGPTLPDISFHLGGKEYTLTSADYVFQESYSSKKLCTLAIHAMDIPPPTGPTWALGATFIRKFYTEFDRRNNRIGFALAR
assay protocol: Inhibition of human plasma renin
Where a SMILES comes first, the peptide text is derived from it. [ ]: non-standard residue; d: D form. The star is where a group is joined. Met(O2) = CS(=O)(=O)CC[C@H](N)C(=O)O; Sta = CC(C)C[C@H](N)[C@@H](O)CC(=O)O; Boc = CC(C)(C)OC(=O)*; Bn = c1ccc(C*)cc1
property label: IC50 (µM)

1. COC(=O)C[C@H](O)[C@H](CC(C)C)NC(=O)[C@H](C)NC(=O)C[C@H](O)[C@H](CC(C)C)NC(=O)[C@H](CCS(C)(=O)=O)NC(=O)[C@H](Cc1ccccc1)NC(=O)OC(C)(C)C (Boc-F[Met(O2)][Sta]A[Sta]-OMe)
2. COC(=O)C[C@H](O)[C@H](CC(C)C)NC(=O)[C@H](C)NC(=O)C[C@H](O)[C@H](CC(C)C)NC(=O)[C@H](COCc1ccccc1)NC(=O)[C@H](Cc1ccccc1)NC(=O)OC(C)(C)C (Boc-FS(Bn)[Sta]A[Sta]-OMe)
Task item: Given 1 and given 2 , which shows the smaller recorded IC50? State your choice using its label.
Reply: 2
(2: 0.174 µM, 1: 10 µM)
